- Measurement target: human TLR2 (Pam3CSK4, TLR1/2 agonist) in HEK-Blue hTLR2 cells (Homo sapiens)
- Construct: host or cells: HEK-Blue hTLR2 (HEK-293)
- Sequence (O60603 19-784 limits assumed): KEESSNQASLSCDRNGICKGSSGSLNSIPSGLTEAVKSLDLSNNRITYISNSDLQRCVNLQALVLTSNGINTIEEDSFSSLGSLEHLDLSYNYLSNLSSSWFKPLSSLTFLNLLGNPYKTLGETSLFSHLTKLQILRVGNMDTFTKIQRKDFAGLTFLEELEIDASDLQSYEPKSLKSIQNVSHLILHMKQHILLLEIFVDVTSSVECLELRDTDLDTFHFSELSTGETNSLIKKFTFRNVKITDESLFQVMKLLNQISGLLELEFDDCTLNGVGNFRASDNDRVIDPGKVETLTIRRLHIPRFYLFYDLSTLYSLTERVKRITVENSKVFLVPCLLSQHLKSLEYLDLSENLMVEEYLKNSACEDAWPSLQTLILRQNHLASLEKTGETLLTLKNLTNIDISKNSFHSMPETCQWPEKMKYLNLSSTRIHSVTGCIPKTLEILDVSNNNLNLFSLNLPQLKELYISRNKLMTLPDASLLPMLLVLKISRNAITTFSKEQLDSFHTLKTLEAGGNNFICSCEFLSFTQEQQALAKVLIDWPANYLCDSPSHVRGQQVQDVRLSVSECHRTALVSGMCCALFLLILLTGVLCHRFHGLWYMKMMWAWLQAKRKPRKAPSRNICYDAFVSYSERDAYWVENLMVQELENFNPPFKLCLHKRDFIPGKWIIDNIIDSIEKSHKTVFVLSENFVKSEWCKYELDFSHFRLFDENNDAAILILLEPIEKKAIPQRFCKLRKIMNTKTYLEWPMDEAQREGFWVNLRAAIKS
- Protocol summary: HEK-Blue hTLR2 antagonism assay (SEAP reporter) with Pam3CSK4 as agonist
- Type: cell-based
- Condition set: 2 h compound pre-incubation, approx. 3×EC50 Pam3CSK4, 18 h, SEAP OD 655 nm, background subtracted
Provide the recorded IC50 for the entries that follow.
Answers are plain numbers, in µM.

These recorded examples may help you get a feel for the data.
Structure notation: COc1cc(/C=C/c2cc(C=O)c(O)c(OC)c2)ccc1O
Measurement target: human TLR2 (Pam3CSK4, TLR1/2 agonist) in HEK-Blue hTLR2 cells (Homo sapiens)
IC50, µM: 7.5
//
Structure notation: COc1cc(C=Cc2ccc3c(c2)OCCO3)cc(C=O)c1O
Measurement target: human TLR2 (Pam3CSK4, TLR1/2 agonist) in HEK-Blue hTLR2 cells (Homo sapiens)
IC50, µM: 5
//
Structure notation: CN1CCc2sc(-c3cc(F)c(O)c(C=O)c3)cc2C1
Measurement target: human TLR2 (Pam3CSK4, TLR1/2 agonist) in HEK-Blue hTLR2 cells (Homo sapiens)
IC50, µM: 12.2
//
Structure notation: CC(C)(C)OC(=O)N1CCC(/C=C/c2cc(F)c(O)c(C=O)c2)CC1
Measurement target: human TLR2 (Pam3CSK4, TLR1/2 agonist) in HEK-Blue hTLR2 cells (Homo sapiens)
IC50, µM: 6

Query compound follows.
The reported value for COc1ccc(/C=C/c2cc(C=O)c(O)cc2F)cc1 in terms of IC50 is 6.3
